assay: Cellular uptake in human T lymphocytes at 3 to 20 uM after 3 hrs by LC-MS/MS analysis relative to azithromycin; type: ADME, cell-based; settings: t-cell
Quick rule: Drug uptake of at least 40% means true, below that means false.

Solved cases below.
compound	category label
CC[C@H]1OC(=O)[C@H](C)[C@@H](O[C@H]2C[C@@](C)(OC)[C@@H](O)[C@H](C)O2)[C@H](C)[C@@H](O[C@@H]2O[C@H](C)C[C@H](N(C)C)[C@H]2O)[C@](C)(O)C[C@@H](C)CN(C)[C@H](C)[C@@H](O)[C@]1(C)O [AZITHROMYCIN]	true
CC[C@H]1OC(=O)[C@H](C)[C@@H](O)[C@H](C)[C@@H](O)[C@](C)(O)C[C@@H](C)CN(C)[C@H](C)[C@@H](O)[C@]1(C)O [AZITHROMYCIN AGLYCONE]	false
CC[C@H]1OC(=O)[C@H](C)[C@@H](O)[C@H](C)[C@@H](O[C@@H]2O[C@H](C)C[C@H](N(C)C)[C@H]2O)[C@](C)(O)C[C@@H](C)CN(C)[C@H](C)[C@@H](O)[C@]1(C)O [DESCLADINOSYL AZITHROMYCIN]	true
CC[C@H]1OC(=O)[C@H](C)[C@@H](O[C@H]2C[C@@](C)(OC)[C@@H](O)[C@H](C)O2)[C@H](C)[C@@H](O[C@@H]2O[C@H](C)C[C@H](N(C)C)[C@H]2O)[C@](C)(OC)C[C@@H](C)C(=O)N[C@H](C)[C@@H](O)[C@]1(C)O	false

# evaluate next
Query: Exam item: decide whether the reported Drug uptake for CC[C@H]1OC(=O)[C@H](C)[C@@H](O[C@H]2C[C@@](C)(OC)[C@@H](O)[C@H](C)O2)[C@H](C)[C@@H](O[C@@H]2O[C@H](C)C[C@H](N(C)C)[C@H]2O)[C@](C)(OC)C[C@@H](C)C(=O)[C@H](C)[C@@H](O)[C@]1(C)O [CLARITHROMYCIN] is at least 40%.
Response: false
